System: HEK-293T
Assay Method Text: Multiplex assay against HEK293T
Assay type: toxicity, cell-based
Stated Conditions: human, 24 h, 10 µM, compound concentration 10 uM, replicate 1
Non-standard residues stand in square brackets, D forms with d. Residues, ends and D or L forms follow the SMILES beside them.
Attribute: Population Apoptotic (%)
Assay Readout: Population Apoptotic (%)

CC(C)C[C@H](CO)Nc1nc(S[C@@H](C)c2ccccc2)nc2nc(N)sc12 ... 54
Cc1cc(-c2ccc3c(c2)CC[C@H]3N2CC3(CCN(C(=O)Cc4cn5cc(C)sc5n4)CC3)C2)ncn1 ... 25
Cl.Cl.OCCOCCN1CCN(C(c2ccccc2)c2ccc(Cl)cc2)CC1 (centres undefined) [HYDROXYZINE HYDROCHLORIDE] ... 29
O=C(NCCNCC(O)COc1ccc(O)cc1)N1CCOCC1.O=C(NCCNCC(O)COc1ccc(O)cc1)N1CCOCC1.O=C(O)/C=C/C(=O)O (centres undefined) [XAMOTEROL FUMARATE] ... 21
CCc1nn2c(C)cc(C)nc2c1Cc1ccc(-c2nnc(C3CCNCC3)o2)cc1 ... 69
COc1cc(C(=O)N2CC[C@@H](O)[C@@H](N)C2)cc2nc(-c3cc4ccccc4n3CC3CC3)n(C)c12.Cl ... 58
Cc1cc(NC(=O)NCCN2CCC(O)(Cc3ccccc3)CC2)c2ccccc2n1 ... 35
Cc1c(Cc2ccc3ccccc3n2)c2cc(F)ccc2n1CC(=O)O ... 32
COCCn1c(C)c(C)s/c1=N\C(=O)C1C(C)(C)C1(C)C ... 71
CC(F)(F)CN1CCOc2c(nn(-c3ccccc3Cl)c2-c2ccc(Cl)cc2)C1=O ... 57
COc1ccc2[nH]c(I)c(CCNC(C)=O)c2c1 ... 32
S=C(NCCCc1c[nH]cn1)NCCCN(Cc1ccc(Cl)c(Cl)c1)c1ccc(Br)cn1 ... 85
COc1cc2nc(N3CCN(C(=O)c4ccco4)CC3)nc(N)c2cc1OC.Cl [PRAZOSIN HYDROCHLORIDE] ... 50
Cc1ccc(OCC(O)C(C)NC(C)C)c2c1CCC2.Cl (centres undefined) ... 46
CN1C[C@H](C(=O)N[C@]2(C)O[C@@]3(O)[C@@H]4CCCN4C(=O)[C@H](Cc4ccccc4)N3C2=O)C[C@@H]2c3cccc4[nH]cc(c34)C[C@H]21.CS(=O)(=O)O [DIHYDROERGOTAMINE MESYLATE] ... 27
CN(C)C/C=C/C(=O)Nc1ccc(C(=O)N2CCCC(Nc3ncc(Cl)c(-c4c[nH]c5ccccc45)n3)C2)cc1 (centres undefined) ... 74
Cn1cc(C(=O)OCC2CCN(CCNS(C)(=O)=O)CC2)c2ccccc21 ... 35
C[C@H](NC(=O)CNC(=O)c1cccc(Cl)c1)c1ccccc1 ... 43
Nc1nc(CC(=O)Nc2ccc(CCNC[C@H](O)c3ccccc3)cc2)cs1 ... 31
C[C@@H]1CC(=O)Nc2cccc(-c3ccc4c(c3)c(-c3cnn(C)c3)nn4C)c2N1 ... 43
COCCCN1CCC(NC(=O)c2cc(Cl)c(N)c3c2OCC3)CC1 [PRUCALOPRIDE] ... 28
CN1CCN2c3ccccc3Cc3ccccc3C2C1.Cl (centres undefined) [MIANSERIN HYDROCHLORIDE] ... 24
CSc1nc(NC2CCCC2)c([N+](=O)[O-])c(NC2CCCC2)n1 ... 27
CN(C)C(=O)Cn1cc(-c2ccc(-c3nnc4ccccn34)cc2)cn1 ... 35
CCC(=O)OCC(=O)[C@@]1(OC(=O)CC)[C@@H](C)C[C@H]2[C@@H]3CCC4=CC(=O)C=C[C@]4(C)[C@@]3(Cl)[C@@H](O)C[C@@]21C [BECLOMETHASONE DIPROPIONATE] ... 56
COc1cc2nc(N3CCN(C(=O)COc4c(OC)cccc4C(C)C)CC3)nc(N)c2cc1OC.Cl.Cl ... 42
CN1CCC(C(=O)c2cccc(NC(=O)c3c(F)cc(F)cc3F)n2)CC1 ... 25
COc1c(Nc2ccc(S(C)(=O)=O)nc2C)ncnc1OC1CCN(C(=O)OC(C)C)CC1 ... 44
O=c1nc2[nH]c3ccccc3nc-2c(=O)[nH]1 ... 27
CC(C)C[C@@H]1NC(=O)[C@@H](C(C)C)NC(=O)[C@@H]2CCCN2C(=O)[C@@H](CC(=O)O)NC(=O)[C@@H](Cc2c[nH]c3ccccc23)NC1=O [BQ-123] (cyclo(L[dW][dD]P[dV])) ... 25
Nc1nc(-c2ccco2)c2cnn(Cc3ccccc3F)c2n1 ... 38
Cc1sc2c(c1C)C(c1ccc(Cl)cc1)=N[C@H](CC(=O)OC(C)(C)C)c1nnc(C)n1-2 ... 41
O=C(Nc1cc(-c2ccccc2)nn1-c1ccccc1F)c1ccc([N+](=O)[O-])cc1 ... 15
CCCCC[C@H](O)/C=C/[C@H]1[C@H](O)CC(=O)[C@@H]1CCCCCCC(=O)O ... 32

====

Tested on: Fibroblast
Assay Method Text: Multiplex assay against human fibroblast
Assay type: toxicity, cell-based
Stated Conditions: 24 h, 1 µM, compound concentration 1 uM, replicate 2
Non-standard residues stand in square brackets, D forms with d. Residues, ends and D or L forms follow the SMILES beside them.
Assay Readout: Population Pyknosed Nuclei (%)

CC(C)(O)C(=O)N1CCN(c2ccc(C(F)(F)F)c(C3=C(c4c[nH]c5ccccc45)C(=O)NC3=O)c2)CC1 ... 23
COc1cc(Nc2ncc3c(n2)-c2ccc(Cl)cc2C(c2c(F)cccc2OC)=NC3)ccc1C(=O)O ... 26
CCC(=O)OCC(=O)[C@@]1(OC(=O)CC)[C@@H](C)C[C@H]2[C@@H]3CCC4=CC(=O)C=C[C@]4(C)[C@@]3(Cl)[C@@H](O)C[C@@]21C [BECLOMETHASONE DIPROPIONATE] ... 24
S=C(NCCCc1c[nH]cn1)NCCCN(Cc1ccc(Cl)c(Cl)c1)c1ccc(Br)cn1 ... 11
COc1ccc2[nH]c(I)c(CCNC(C)=O)c2c1 ... 15
O=c1nc2[nH]c3ccccc3nc-2c(=O)[nH]1 ... 27
CC(C)C[C@@H]1NC(=O)[C@@H](C(C)C)NC(=O)[C@@H]2CCCN2C(=O)[C@@H](CC(=O)O)NC(=O)[C@@H](Cc2c[nH]c3ccccc23)NC1=O [BQ-123] (cyclo(L[dW][dD]P[dV])) ... 18
CN1CCN2c3ccccc3Cc3ccccc3C2C1.Cl (stereo not drawn) [MIANSERIN HYDROCHLORIDE] ... 19
CC(C)(C)c1ccc(CSc2cnn(C(C)(C)C)c(=O)c2Cl)cc1 ... 21
COCCn1c(C)c(C)s/c1=N\C(=O)C1C(C)(C)C1(C)C ... 17
CCCCC[C@H](O)/C=C/[C@H]1[C@H](O)CC(=O)[C@@H]1CCCCCCC(=O)O ... 24
COc1cc2nc(N3CCN(C(=O)c4ccco4)CC3)nc(N)c2cc1OC.Cl [PRAZOSIN HYDROCHLORIDE] ... 21
Nc1nc(-c2ccco2)c2cnn(Cc3ccccc3F)c2n1 ... 17

====

Test system: HEK-293T
Assay Method Text: Multiplex assay against HEK293T
Type: toxicity, cell-based
Stated Conditions: human, 12 h, 1 µM, compound concentration 1 uM, replicate 2
Classify by measured Population Hoechst High Intensity Objects (%): YES if it is equal to or exceeds 8%, NO if it is smaller.

O=C(O)CCC/C=C\CC1C(O)CC(O)C1/C=C/C(O)COc1cccc(Cl)c1 (stereo unspecified) ... NO
CSc1nc(NC2CCCC2)c([N+](=O)[O-])c(NC2CCCC2)n1 ... NO
COc1cc(Nc2ncc3c(n2)-c2ccc(Cl)cc2C(c2c(F)cccc2OC)=NC3)ccc1C(=O)O ... NO
Cc1cc(NC(=O)NCCN2CCC(O)(Cc3ccccc3)CC2)c2ccccc2n1 ... YES
CN1CCN2c3ccccc3Cc3ccccc3C2C1.Cl (stereo unspecified) [MIANSERIN HYDROCHLORIDE] ... YES

====

Attribute: Population Pyknosed Nuclei (%)
Tested on: Fibroblast
Assay Method Text: Multiplex assay against human fibroblast
Type: toxicity, cell-based
Stated Conditions: 24 h, 1 µM, compound concentration 1 uM, replicate 1
Assay Readout: Population Pyknosed Nuclei (%)

COc1c(Nc2ccc(S(C)(=O)=O)nc2C)ncnc1OC1CCN(C(=O)OC(C)C)CC1 [ADP-597] ... 15
CN1C[C@H](C(=O)N[C@]2(C)O[C@@]3(O)[C@@H]4CCCN4C(=O)[C@H](Cc4ccccc4)N3C2=O)C[C@@H]2c3cccc4[nH]cc(c34)C[C@H]21.CS(=O)(=O)O [DIHYDROERGOTAMINE MESYLATE] ... 10
Cc1cc(O)c(-c2ccc([C@@H](C)CN(C)C)cc2)c2c1[nH]c(=O)c1sccc12 ... 21
C[C@@H]1CC(=O)Nc2cccc(-c3ccc4c(c3)c(-c3cnn(C)c3)nn4C)c2N1 ... 15
COc1cc(C(=O)N2CC[C@@H](O)[C@@H](N)C2)cc2nc(-c3cc4ccccc4n3CC3CC3)n(C)c12.Cl ... 13
COCCCN1CCC(NC(=O)c2cc(Cl)c(N)c3c2OCC3)CC1 [PRUCALOPRIDE] ... 21
CC(C)(O)C(=O)N1CCN(c2ccc(C(F)(F)F)c(C3=C(c4c[nH]c5ccccc45)C(=O)NC3=O)c2)CC1 ... 16
CN1CCN2c3ccccc3Cc3ccccc3C2C1.Cl (centres undefined) [MIANSERIN HYDROCHLORIDE] ... 12
CCc1nn2c(C)cc(C)nc2c1Cc1ccc(-c2nnc(C3CCNCC3)o2)cc1 ... 13
